The origin of these recorded values is ChEMBL document CHEMBL1123671.

Assign ED50 to each entry below.
Test system: Mus musculus
Assay Details: Ability to kill 50% of the animals (administered orally), after sublethal dose of yohimbine (25 mg/Kg) when given subcutaneously.
Type: functional
Give bare numbers, in mg/kg.

CCN(CC)C(=O)[C@]1(c2ccc(F)cc2)CC1CN.Cl (some centres undefined) = 5
NCC1C[C@@]1(C(=O)N1CCCC1)c1ccccc1.O=C(O)C(=O)O (some centres undefined) = 48

Read the next record carefully.
Input: Give its ED50 value. Item: CCN(CC)C(=O)[C@]1(c2ccc(Cl)cc2)CC1CN.Cl (some centres undefined)
Output: 3

---

Species on record: Mus musculus
Assay Details: Percent increase of the diameter of the test pupil (% mydriasis) in comparison with that of the control pupil.
Type: functional
Measurement Label: Mydriasis (%)
Numbers only, in %.

CNCCCN1c2ccccc2CCc2ccccc21 = 46
CCOC(=O)[C@@]1(c2ccccc2)CC1CN(C(C)C)C(C)C.O=C(O)/C=C\C(=O)O (stereo not given in full) = 49
NCC1C[C@@]1(C(=O)N1CCCC1)c1ccccc1.O=C(O)C(=O)O (stereo not given in full) = 12
CCOC(=O)[C@@]1(c2ccc(Cl)cc2)CC1CN(C)C.Cl (stereo not given in full) = 24

Read the next record carefully.
Input: Give its Mydriasis value. Item: CCCOC(=O)[C@@]1(c2ccccc2)CC1CN(C)C.O=C(O)/C=C/C(=O)O (stereo not given in full)
Output: 55

---

System: Mus musculus
Assay Details: Antagonism of tetrabenazine-induced ptosis in mice was evaluated after oral administration
Type: functional
Categories are defined by ranges of ED50, namely c1: < 3 mg/kg; c2: ≥ 3 mg/kg and < 10 mg/kg; c3: ≥ 10 mg/kg

Example entries and their recorded answers appear below.
CCOC(=O)[C@@]1(c2ccccc2)CC1CN(C)CCc1ccccc1.Cl (stereo not given in full) = c3
Cl.NCC1C[C@@]1(C(=O)O)c1ccccc1 (stereo not given in full) = c3
CCNC(=O)[C@@]1(c2ccccc2)CC1CN.O=C(O)C(=O)O (stereo not given in full) = c3
CCN(CC)C(=O)[C@@]1(c2ccccc2)CC1CNC.O=C(O)C(=O)O (stereo not given in full) = c3
Cc1ccc([C@]2(C(=O)OC(C)C)CC2CN)cc1.Cl (stereo not given in full) = c3

Input: Textbook exercise: identify the category of the compound given here, CCN(CC)C(=O)[C@]1(c2cccc(Cl)c2)CC1CN.Cl (stereo not given in full) , according to its measured value.
Output: c1

---

Assay Details: Ability to kill 50% of the animals after 24h, when administered perorally
Format: ADME, organism-based
Protocol Conditions: mouse, in vivo, po
Measurement Label: LD50 at 24 h (mg/kg)
Numbers only, in mg/kg.

CCN(CC)C(=O)[C@]1(c2ccc(F)cc2)CC1CN.Cl (stereo not given in full) = 422
CC(C)OC(=O)[C@@]1(c2ccc(Cl)cc2)CC1CN.Cl (stereo not given in full) = 255
CCCCN(CCCC)C(=O)[C@@]1(c2ccccc2)CC1CN.O=C(O)C(=O)O (stereo not given in full) = 562

Batch of 5 compounds: report LD50 at 24 h for each.
1. CCCCN(C)CC1C[C@@]1(C(=O)OCC)c1ccccc1.Cl (stereo not given in full)
2. CCN(CC)C(=O)[C@]1(c2ccc(Cl)cc2)CC1CN.Cl (stereo not given in full)
3. CCCN(CCC)C(=O)[C@@]1(c2ccccc2)CC1CN.O=C(O)C(=O)O (stereo not given in full)
4. CCCOC(=O)[C@@]1(c2ccccc2)CC1CN(C)C.O=C(O)/C=C/C(=O)O (stereo not given in full)
5. CCOC(=O)[C@@]1(c2ccc(F)cc2)CC1CN(C)C.Cl (stereo not given in full)

Output:
1. 255
2. 422
3. 100
4. 562
5. 562
